# tested.on: Rac-1 (Homo sapiens)
# assay.comment: Ras GTP binding domain inhibition assay (Cy3-GTP/Cy5-GTP competition)
# condition.label: with SOS, read-out: Rac-1 + SOS: % inh.
measurement.name: inhibition at 20 µM

compound | tested.on | inhibition at 20 µM
CO[C@H]1C[C@@H](Nc2nc(-c3nccn3C)nc3sc(-c4ccn(C)n4)c(-c4ccccc4)c23)C1.Cl [drawing 1040] | Rac-1 (Homo sapiens) | 76 to 100%

Which value of inhibition at 20 µM has been reported for COc1ccc(-c2c(-c3cccc(OC)c3F)sc3nc(-c4nccn4C)nc(N4CCC(OC)C4)c23)cc1 (stereo not shown) [drawing 941] in the records? 0%

Which value of inhibition at 20 µM has been reported for Cn1ccnc1-c1nc(O)c(O)c(C(=O)N2CCCCC2)n1 [drawing 961] in the records? 1 to 25%

Which value of inhibition at 20 µM has been reported for COC1CCN(c2nc(-c3nccn3C)nc3sc(-c4ccccc4CO)c(-c4ccccc4)c23)C1 (stereo not shown) [drawing 952] in the records? 0%

Which value of inhibition at 20 µM has been reported for CO[C@H]1CC[C@@H](Nc2nc(-c3nccn3C)nc3sc(-c4ccn(C)n4)c(C)c23)C1 [drawing 1050] in the records? 76 to 100%

Data credit: patent US20250296938A1
